system: OVCAR-4; experiment: NCI tumour cell line growth inhibition, 48 h
Activity calls are given as the source filed them. No stated cut-off is given here; in the data, active = GI50 up to about 1.1 µM and inactive = higher.
Entries and their measured GI50 follow.

A selection of reference data follows.
O=C(Cn1c(C(=O)/C=C/c2ccc(Cl)c(Cl)c2)nc2ccccc21)c1ccccc1 ... 25.6 µM (inactive)
CCCCCN(CCCCC)C(=O)[C@H](CCC(=O)OCc1ccccc1)NC(=O)c1cc2ccccc2[nH]1 ... > 100 µM (inactive)
O=c1ccc(=O)c2c1c1[nH]c3ccccc3c1c1c(=O)c3ccccc3c(=O)c21 ... > 10 µM (inactive)

Problem: Need GI50, item `Nc1ccc(Oc2ccc(C34CC5CC(C3)CC(c3ccc(Oc6ccc(N)cc6)cc3)(C5)C4)cc2)cc1`
Solution: 8.79 µM (inactive)

Problem: Need GI50, item O=C1c2cc3c(cc2CC12Cc1ccc4c(c1C2=O)CCC4)CCCC3 (stereo not given)
Solution: > 100 µM (inactive)

Problem: Need GI50, item `COc1cccc(-c2cc(O)c3ccccc3n2)c1`
Solution: > 100 µM (inactive)

Problem: Need GI50, item CC(=O)O[C@H]1CC[C@@]2(C)C(=CC[C@@H]3C2CC[C@]2(C)Nc4oncc4CC32)C1 (stereo not given in full)
Solution: 16.8 µM (inactive)

Problem: Need GI50, item `O=c1[nH]nc(Nc2ccc(Cl)cc2)c2nnn(-c3ccc([N+](=O)[O-])cc3)c12`
Solution: 23.8 µM (inactive)

Problem: Need GI50, item `CC(C)=CCC/C(C)=C/CC/C(C)=C/CSc1ccc(Cl)cc1C(=O)O`
Solution: 27.7 µM (inactive)

Problem: Need GI50, item `O=[N+]([O-])c1ccc(-c2csc(=[N+]3CCCCC3)s2)cc1`
Solution: 18.5 µM (inactive)
